- TARGET_SYSTEM: T1, O4-AA
- T1 chain: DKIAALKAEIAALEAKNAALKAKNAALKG
- PROTOCOL_DESCRIPTION: two-hybrid library CCmax;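 note: natural log of median RNA to DNA barcode read ratio; higher means stronger binding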
- CONDITION: mean of both orientations
MEASURED_ENDPOINT: interaction score
Answers are plain numbers.

Example results:
- BINDER: "DENAALEAEIAALEAENAALEAKIAALKG [O14-AA]"
  MEASURED_ENDPOINT: "interaction score"
  RECORDED_VALUE: -0.13
- BINDER: "DKNAALKAKIAALKAKNAALKAEIAALEG [O13-AA]"
  MEASURED_ENDPOINT: "interaction score"
  RECORDED_VALUE: -1.61
- BINDER: "DEIAALEAKIAALKAKNAALKAKNAALKG [4H384-AA]"
  MEASURED_ENDPOINT: "interaction score"
  RECORDED_VALUE: -0.235
- BINDER: "DEIAALEAKIAALKAENAALEAENAALEG [O3-AA]"
  MEASURED_ENDPOINT: "interaction score"
  RECORDED_VALUE: 1.99
- BINDER: "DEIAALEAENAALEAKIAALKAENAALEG [4H171-AA]"
  MEASURED_ENDPOINT: "interaction score"
  RECORDED_VALUE: -0.185

Here are 3 binders. What values of interaction score were reported for them?
1. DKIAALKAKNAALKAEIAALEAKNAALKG [4H3016-AA]
2. DENAALEAKNAALKAKIAALKAKIAALKG [O2-AA]
3. DKIAALKAEIAALEAENAALEAENAALEG [O11-AA]

result:
1: -1.64; 2: -1.55; 3: 1.9

query: Sample DKNAALKAENAALEAEIAALEAEIAALEG [O1-AA] — what was its interaction score?
result: -1.07

Cited source for all entries: paper PMC10397247
